Measured IC50 values are reported for all entries that follow.
# test_system: PI3Kα (p110α/p85α) (Homo sapiens, UniProt P42336)
# Construct: GST (N)
# Sequence (P42336 whole entry): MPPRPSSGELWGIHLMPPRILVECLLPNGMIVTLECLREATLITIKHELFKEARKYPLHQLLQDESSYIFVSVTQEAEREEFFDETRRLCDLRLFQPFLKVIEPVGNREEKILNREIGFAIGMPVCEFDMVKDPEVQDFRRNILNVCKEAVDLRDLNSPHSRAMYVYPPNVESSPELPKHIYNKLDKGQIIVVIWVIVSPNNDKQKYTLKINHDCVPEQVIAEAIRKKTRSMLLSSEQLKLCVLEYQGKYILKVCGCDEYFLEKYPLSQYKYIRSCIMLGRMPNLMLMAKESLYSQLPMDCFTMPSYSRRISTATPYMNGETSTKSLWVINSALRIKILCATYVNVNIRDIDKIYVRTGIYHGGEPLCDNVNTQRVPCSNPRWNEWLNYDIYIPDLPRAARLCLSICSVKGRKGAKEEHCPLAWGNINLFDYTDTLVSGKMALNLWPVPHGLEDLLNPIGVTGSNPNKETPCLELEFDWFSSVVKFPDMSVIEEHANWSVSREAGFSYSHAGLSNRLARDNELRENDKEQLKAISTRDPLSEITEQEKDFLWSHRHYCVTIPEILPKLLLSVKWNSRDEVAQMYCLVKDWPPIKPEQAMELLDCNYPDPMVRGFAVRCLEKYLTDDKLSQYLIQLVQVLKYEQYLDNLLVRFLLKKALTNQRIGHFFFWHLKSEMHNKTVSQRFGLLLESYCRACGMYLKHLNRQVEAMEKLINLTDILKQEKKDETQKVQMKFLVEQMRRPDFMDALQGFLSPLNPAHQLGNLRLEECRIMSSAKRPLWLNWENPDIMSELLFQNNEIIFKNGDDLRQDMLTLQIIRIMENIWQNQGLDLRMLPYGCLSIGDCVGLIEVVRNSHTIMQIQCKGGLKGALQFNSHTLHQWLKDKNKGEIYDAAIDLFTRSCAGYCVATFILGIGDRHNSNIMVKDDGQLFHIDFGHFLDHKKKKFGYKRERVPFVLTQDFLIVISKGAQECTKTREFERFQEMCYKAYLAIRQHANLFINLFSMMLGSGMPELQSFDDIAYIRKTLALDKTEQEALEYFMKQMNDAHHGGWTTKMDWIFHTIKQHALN
# Sequence (P27986 whole entry partner): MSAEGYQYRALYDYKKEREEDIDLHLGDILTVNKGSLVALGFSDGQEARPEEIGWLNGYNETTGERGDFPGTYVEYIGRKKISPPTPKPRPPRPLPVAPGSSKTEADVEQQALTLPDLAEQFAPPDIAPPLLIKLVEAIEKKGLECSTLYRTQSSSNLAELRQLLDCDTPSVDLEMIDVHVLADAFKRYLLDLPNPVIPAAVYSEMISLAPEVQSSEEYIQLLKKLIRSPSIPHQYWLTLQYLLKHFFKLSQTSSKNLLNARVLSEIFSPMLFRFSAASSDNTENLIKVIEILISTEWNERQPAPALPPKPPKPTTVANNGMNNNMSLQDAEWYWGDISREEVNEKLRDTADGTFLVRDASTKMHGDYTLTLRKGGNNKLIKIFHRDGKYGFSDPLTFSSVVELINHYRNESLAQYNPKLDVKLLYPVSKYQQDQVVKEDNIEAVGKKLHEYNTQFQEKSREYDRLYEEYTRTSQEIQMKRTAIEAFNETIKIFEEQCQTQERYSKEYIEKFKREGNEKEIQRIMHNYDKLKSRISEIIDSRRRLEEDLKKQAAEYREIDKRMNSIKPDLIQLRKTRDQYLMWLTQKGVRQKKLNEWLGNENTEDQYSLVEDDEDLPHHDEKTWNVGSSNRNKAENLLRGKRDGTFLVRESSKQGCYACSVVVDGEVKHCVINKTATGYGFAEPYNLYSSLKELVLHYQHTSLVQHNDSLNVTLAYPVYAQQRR
# assay_remarks: PI3Kα ADP-Glo assay
# measurement_context: 20 μM PIP2, 10 μM ATP, 30 minutes

Example entries and their recorded answers appear below.
1. C/C(=N/O)c1cccc(-c2nc(N3CCOCC3)c3sc(CN(C)c4ncc(C(=O)NO)cn4)cc3n2)c1 :: 100 to 1000 nM
2. CN(Cc1cc2nc(-c3cccc4[nH]ncc34)nc(N3CCOCC3)c2s1)CC1CCN(c2ncc(C(=O)NO)cn2)CC1 :: < 100 nM

For CC(=O)OCCN(Cc1cc2nc(-c3cccc4[nH]ncc34)nc(N3CCOCC3)c2s1)c1ncc(C(=O)NO)cn1 , what is its reported IC50?
< 100 nM

Then this compound: CNCCOc1ccc(-c2nc(N3CCOCC3)c3sc(CN(C)c4ncc(C(=O)NO)cn4)cc3n2)cn1
> 10000 nM

Then this compound: CN(Cc1cc2nc(-c3cccc(S(N)(=O)=O)c3)nc(N3CCOCC3)c2s1)c1ncc(C(=O)NO)cn1
100 to 1000 nM

Then this compound: CN(Cc1cc2nc(-c3cccc4[nH]ncc34)nc(N3CCOCC3)c2s1)c1ncc(C(=O)NO)cn1
< 100 nM
